Provide the recorded Inhibition for the entries that follow.
# Tested on: Cryptococcus neoformans
# experimental conditions: Concentration 20 uM; ASSAY_TEST Inhibition of Fungal Growth; detection method Resazurin; Absorption (OD600-OD570); plate type 384well; NBS; CORNING #3640
# Description: Antifungal activity against Cryptococcus neoformans H99 ATCC 208821 (CO-ADD:FG_002); MIC in YNB media using NBS plates, by Resazurin OD(600-570)
Entries with a potency or affinity are not part of this list.
Reply numerically in %, unit not repeated.

GET /values?item= `O=C(C1CCN(c2cc(-n3cccc3)ncn2)CC1)N1CCc2ccccc2C1` &system= Cryptococcus neoformans returns Inhibition: 3.06

Assay Cryptococcus neoformans, sample `N#Cc1nc(-c2ccccc2)oc1S(=O)(=O)c1ccc(Cl)cc1` , Inhibition read: -7.91

Cryptococcus neoformans Inhibition of CS(=O)(=O)c1ccc(C(=O)N(CC2CCCO2)c2nc3ccccc3s2)cc1[N+](=O)[O-] (stereo not given) is -10.33

So the reported Inhibition for CC1=Nc2ccc(Cl)cc2C(c2ccccc2)N1CCNC(=O)CN(C)C (stereo not given) , on Cryptococcus neoformans, turned out to be 10.1

Form: item `CCN(CC)CCCN1CCN(C(=O)c2cccc(-c3noc(C(F)(F)F)n3)c2)CC1` ; test system Cryptococcus neoformans; Inhibition: -3.47

Entry `Cc1ccc2oc(-c3cc(NC(=O)Cc4ccccc4)ccc3Cl)nc2c1` ; assay system Cryptococcus neoformans; Inhibition recorded at -8.89

Cryptococcus neoformans assay, compound `O=C(CCC1CCCCC1)Nc1cccc(-c2nnc(-c3ccco3)o2)c1` , recorded Inhibition = -12.99

Form: item `O=C(NC1CC1)c1ccc(N2CCOc3ccc(Cl)cc32)s1` ; test system Cryptococcus neoformans; Inhibition: 31.76

Item CC(Oc1ccccc1)C(=O)Nc1nc(-c2ccccn2)cs1 (stereo not given) ; assay system Cryptococcus neoformans; Inhibition reported as -5.96

Item O=C1Nc2ccc(Br)cc2C12NCCc1c2[nH]c2ccccc12 (stereo not given) was tested on Cryptococcus neoformans; the reported Inhibition is -1.68

* * *

# Test system: Klebsiella pneumoniae
# experimental conditions: Concentration 20 uM; ASSAY_TEST Inhibition of Bacterial Growth; detection method Absorption (OD600); MEDIA CAMHB; plate type 384well; NBS; CORNING #3640; time 18 hr
# Description: Antibacterial activity against Klebsiella pneumoniae MDR ATCC 70063 (CO-ADD:GN_003); MIC in CAMBH media using NBS plates, by OD(600)
Entries with a potency or affinity are not part of this list.
quantity measured: Inhibition (%)
Please give a number only; it is taken to be in %.

Record O=C(Nc1nc(-c2ccccn2)cs1)C1CC1c1ccccc1F (stereo unspecified) ; system Klebsiella pneumoniae; Inhibition = 21.19

Here `O=C(N[C@H](Cc1ccccc1)C(=O)Nc1ccccc1N1CCOCC1)c1cccs1` was tested on Klebsiella pneumoniae, and its Inhibition came to 11.64

Entry CCc1nc2ccccc2n1CC(O)COc1cc(C)ccc1Cl (stereo unspecified) ; assay system Klebsiella pneumoniae; Inhibition recorded at 3.05

Reported Klebsiella pneumoniae Inhibition for item `Cl.c1ccc(Oc2ccc(-c3cc(N4CCNCC4)[nH]n3)cc2)cc1` was -6.32

Klebsiella pneumoniae Inhibition of `O=C(NCCN1CCCC1)c1cc(NCCN2CCOCC2)nc2ccc(Cl)cc12` is 16.49

Field Inhibition (Klebsiella pneumoniae), entry CC(C)C(NC(=O)Cc1cccc2ccccc12)C(=O)Nc1cccc(C#N)c1 (stereo unspecified) : 13.86

Item: `Nc1ncc(-c2ccc(C(F)(F)F)nc2)cc1-c1ccc(C(F)(F)F)nc1` | System: Klebsiella pneumoniae | Inhibition: -7.95

With Klebsiella pneumoniae as the test system, `N#Cc1nc(-c2ccccc2)oc1S(=O)(=O)c1ccc(Cl)cc1` showed Inhibition of -0.86

The measured Inhibition that `COc1ccc(-c2cnc3ccc(N4CCCC4)nn23)cc1OC` showed for Klebsiella pneumoniae is 12.07

Measured Inhibition for this entry CCc1cc(=O)n(C)c(SC(C)C(=O)Nc2ccc(F)cc2)n1 (stereo unspecified) on Klebsiella pneumoniae: 3.6

Inhibition value, target or system Klebsiella pneumoniae, for `COc1ccc(-c2nnc3ccc(-c4cccc(C(C)C)c4)cn23)cc1OC` : -10.87

All values here come from ChEMBL document CHEMBL4513149.
